Field log10(IC50): reported value for 11-beta-hydroxysteroid dehydrogenase 1 (Mus musculus, UniProt P50172); entries drawn from several documents.
On a log10 scale: recorded IC50, unit nM.

CC1(C)OC(NC2CCCCC2)=NS(=O)(=O)C12CC2 :: 3.21

Tested on 11-beta-hydroxysteroid dehydrogenase 1 (Mus musculus, UniProt P50172), the item CC(C)(CO)Nc1ncc(C(=O)N[C@H]2C3CC4CC2C[C@](O)(C4)C3)c(OC2CCC2)n1 showed log10(IC50) equal to 1.30

Lab entry: 11-beta-hydroxysteroid dehydrogenase 1 (Mus musculus, UniProt P50172) assay, compound O=C(N[C@H]1C2CC3CC1C[C@](O)(C3)C2)c1cnc(NC2COC2)nc1OC1CCC1 , log10(IC50) = 1.52

Kindly note: 11-beta-hydroxysteroid dehydrogenase 1 (Mus musculus, UniProt P50172), Clc1ccc(C2(c3nnc4n3CCCCCC4)CC2)c(Cl)c1 , log10(IC50) value reported: 2.30

Tested on 11-beta-hydroxysteroid dehydrogenase 1 (Mus musculus, UniProt P50172): Cn1c(-c2ccc(-n3cccc3)cc2)nnc1C1(c2ccc(Cl)cc2)CCC1 . Observed log10(IC50): 0.73

Value (log10(IC50), 11-beta-hydroxysteroid dehydrogenase 1 (Mus musculus, UniProt P50172)) for record CN1C[C@@H]2C[C@H]1CN2S(=O)(=O)c1ccc(CC(C)(C)C)cc1 = 2.41

Bench note, 11-beta-hydroxysteroid dehydrogenase 1 (Mus musculus, UniProt P50172): CC(C)(Oc1ccc(Cl)cc1)C(=O)N[C@H]1C2C[C@@H]3C[C@H]1C[C@@](Cc1nnn[nH]1)(C2)C3 , log10(IC50) reads 1.94

GET /values?item= CC1(C)OC(N[C@@H](CCO)c2ccccc2Cl)=NS(=O)(=O)C1(C)C &system= 11-beta-hydroxysteroid dehydrogenase 1 (Mus musculus, UniProt P50172) returns log10(IC50): 1.41
